Tested on: MOLT-4
Procedure summary: NCI tumour cell line growth inhibition, 48 h
Active and inactive are the calls of the source. Rule as the data show it: active = GI50 up to about 1.1 µM and inactive = higher.
Property label: GI50

Report measured GI50; entry is O=C1c2ccccc2-c2ccc(/N=N/c3c(O)ccc4ccccc34)cc21
41.8 µM (inactive)

More entries:
Report measured GI50; entry is O=C(O)c1cc(/C=C/c2ccc(O)c(O)c2)ccc1O
30.8 µM (inactive)

Report measured GI50; entry is CCc1n[nH]c(=O)n1-c1ccncc1
> 100 µM (inactive)

Report measured GI50; entry is CN1CCC(OC(=O)Oc2ccccc2)(c2ccccc2)CC1
13.1 µM (inactive)

Report measured GI50; entry is CCn1c(=N)sc2nc3ccccc3n2c1=O
> 100 µM (inactive)

Report measured GI50; entry is COc1cccc(SSc2cccc(OC)c2C(=O)O)c1C(=O)O
> 100 µM (inactive)

Report measured GI50; entry is COC(=O)C(=O)OC1(C(C)=O)CC2(c3ccccc3)OC1(c1ccccc1)c1ccccc12 (stereo not given)
22 µM (inactive)

Report measured GI50; entry is Nc1nc(N)c2nn(-c3ccc(C(=O)O)cc3)nc2n1
> 100 µM (inactive)

Report measured GI50; entry is COC(=O)C(Cc1ccc(N(C)C)cc1)(NC(=O)c1ccccc1)P(=O)(OC)OC (stereo not given)
> 100 µM (inactive)

Report measured GI50; entry is COc1ccccc1C1Nn2c(nc3ccccc3c2=O)N1c1ccc(C)cc1 (stereo not given)
1.47 µM (inactive)
